System: green foxtail (Setaria viridis) (SETVI)
experiment-summary: post-emergent herbicidal test, green foxtail
Type: in vivo
experimental-conditions: Setaria viridis, post-emergence, read-out: SETVI percent control
endpoint-label: pest or weed control at 1000 g/ha (%)

smiles-code | target-system | unit-abbrev | data-value
CNCC(P(=O)(O)O)P(=O)(O)O | green foxtail (Setaria viridis) (SETVI) | % | 100
CCCNCC(P(=O)(O)O)P(=O)(O)O | green foxtail (Setaria viridis) (SETVI) | % | 100
O=P(O)(O)C(CNC1CC1)P(=O)(O)O | green foxtail (Setaria viridis) (SETVI) | % | 95
C=CCNCC(P(=O)(O)O)P(=O)(O)O | green foxtail (Setaria viridis) (SETVI) | % | 98
CCNCC(P(=O)(O)O)P(=O)(O)O | green foxtail (Setaria viridis) (SETVI) | % | 50
CONCC(P(=O)(O)O)P(=O)(O)O | green foxtail (Setaria viridis) (SETVI) | % | 0

* * *

Attribute: log10 of IC50
Test system: farnesyl pyrophosphate synthase in daffodil chromoplasts
experiment-summary: inhibition of farnesyl pyrophosphate synthase in daffodil chromoplasts (14C-isopentenyl pyrophosphate incorporation)
Format: biochemical, Narcissus pseudonarcissus
experimental-conditions: Table II; unit inferred, IC50 values in nM; read-out: IC50
endpoint-label: log10 of IC50 (log10 of the value in nM)

compound | endpoint-label | data-value
CN(C)CC(P(=O)(O)O)P(=O)(O)O [Compound 8] | log10 of IC50 | 3.46
CC(NCC(P(=O)(O)O)P(=O)(O)O)c1ccc(F)cc1 (stereo not shown) [Compound 44] | log10 of IC50 | 3.40
C=CCCNCC(P(=O)(O)O)P(=O)(O)O [Compound 16] | log10 of IC50 | 2.50
O=P(O)(O)C(O)(C1CCCCN1)P(=O)(O)O (stereo not shown) [Compound 9] | log10 of IC50 | 2.32
CCCN(CC(C)C)CC(P(=O)(O)O)P(=O)(O)O [Compound 51] | log10 of IC50 | 1.96
CCOCCNCC(P(=O)(O)O)P(=O)(O)O [Compound 22] | log10 of IC50 | 3.22
CCCN(CCC(=O)O)CC(P(=O)(O)O)P(=O)(O)O [Compound 54] | log10 of IC50 | 2.68
CC(C)N(C)CC(P(=O)(O)O)P(=O)(O)O [Compound 33] | log10 of IC50 | 2.25
CC1CCC(C)N1CC(P(=O)(O)O)P(=O)(O)O (stereo not shown) [Compound 11] | log10 of IC50 | 2.79
CC(NCC(P(=O)(O)O)P(=O)(O)O)c1ccccc1 (stereo not shown) [Compound 26] | log10 of IC50 | 3.16
CONCC(P(=O)(O)O)P(=O)(O)O [Compound 15] | log10 of IC50 | 3.80
O=P(O)(O)C(CNCCc1ccccc1)P(=O)(O)O [Compound 28] | log10 of IC50 | 3.15
O=P(O)(O)C(CNCC(F)(F)F)P(=O)(O)O [Compound 39] | log10 of IC50 | 2.58
CCCCCCN(CCC)CC(P(=O)(O)O)P(=O)(O)O [Compound 59] | log10 of IC50 | 2.13
C=CCN(C)CC(P(=O)(O)O)P(=O)(O)O [Compound 41] | log10 of IC50 | 1.78
CCCCCCNCC(P(=O)(O)O)P(=O)(O)O [Compound 17] | log10 of IC50 | 2.50
CCCN(C)CC(P(=O)(O)O)P(=O)(O)O [Compound 32] | log10 of IC50 | 1.43
CC1CC(C)CN(CC(P(=O)(O)O)P(=O)(O)O)C1 (stereo not shown) [Compound 35] | log10 of IC50 | 2.72
O=P(O)(O)C(CNC1CCCCC1)P(=O)(O)O [Compound 5] | log10 of IC50 | 2.63
CCCCN(CCCC)CC(P(=O)(O)O)P(=O)(O)O [Compound 24] | log10 of IC50 | 2.28
CC1CCCN1CC(P(=O)(O)O)P(=O)(O)O (stereo not shown) [Compound 43] | log10 of IC50 | 1.97
O=P(O)(O)C(CN1C=NCCC1)P(=O)(O)O [Compound 65] | log10 of IC50 | 1.70
CC(C)(C)NCC(P(=O)(O)O)P(=O)(O)O [Compound 7] | log10 of IC50 | 2.38
O=P(O)(O)C(CNC1CC1)P(=O)(O)O [Compound 42] | log10 of IC50 | 1.43
Cc1cnn(CC(P(=O)(O)O)P(=O)(O)O)c1 [Compound 60] | log10 of IC50 | 3.15
CCNCC(P(=O)(O)O)P(=O)(O)O [Compound 20] | log10 of IC50 | 2.18
Cc1cn(CC(P(=O)(O)O)P(=O)(O)O)cn1 [Compound 58] | log10 of IC50 | 2.03
O=P(O)(O)C(CN1CCCC1)P(=O)(O)O [Compound 4] | log10 of IC50 | 1.58
CC(O)CNCC(P(=O)(O)O)P(=O)(O)O (stereo not shown) [Compound 66] | log10 of IC50 | 1.76
CC(C)NCC(P(=O)(O)O)P(=O)(O)O [Compound 6] | log10 of IC50 | 1.95
O=P(O)(O)C(CN1CC=CCC1)P(=O)(O)O [Compound 45] | log10 of IC50 | 1.41
C=CCN(CC)CC(P(=O)(O)O)P(=O)(O)O [Compound 40] | log10 of IC50 | 1.94
CCCCN(CCC)CC(P(=O)(O)O)P(=O)(O)O [Compound 52] | log10 of IC50 | 1.94
CC[C@H](C)NCC(P(=O)(O)O)P(=O)(O)O [Compound 56] | log10 of IC50 | 1.51
CCCCCN(CCC)CC(P(=O)(O)O)P(=O)(O)O [Compound 62] | log10 of IC50 | 2.27
O=P(O)(O)C(CN[C@@H]1C[C@H]1c1ccccc1)P(=O)(O)O (relative stereo) [Compound 63] | log10 of IC50 | 3.32
CC1CCCC1NCC(P(=O)(O)O)P(=O)(O)O (stereo not shown) [Compound 50] | log10 of IC50 | 2.37
O=P(O)(O)C(CN1CCCCCC1)P(=O)(O)O [Compound 29] | log10 of IC50 | 2.56
Cc1cccnc1NCC(P(=O)(O)O)P(=O)(O)O [Compound 31] | log10 of IC50 | 3.82
CCCNCC(P(=O)(O)O)P(=O)(O)O [Compound 3] | log10 of IC50 | 1.48
C=C(C)CNCC(P(=O)(O)O)P(=O)(O)O [Compound 34] | log10 of IC50 | 1.49

* * *

System: wild mustard (Brassica kaber), also known as Sinapis arvensis (SINAR)
experiment-summary: post-emergent herbicidal test, wild mustard
Type: in vivo
experimental-conditions: Brassica, post-emergence, post-emergent, 1.0 kg/ha (*), 17-21 days after application; read-out: SINAR percent control
Would you mind labelling by pest or weed control at 1000 g/ha? At or over 90% is true, under is false.

smiles-code | assigned-category
CCCCCN(CCC)CC(P(=O)(O)O)P(=O)(O)O | false
CCCN(C)CC(P(=O)(O)O)P(=O)(O)O | true
CCCCCCNCC(P(=O)(O)O)P(=O)(O)O | false
O=P(O)(O)C(CN1CCCC1)P(=O)(O)O | true
CCCCN(CCCC)CC(P(=O)(O)O)P(=O)(O)O | false

* * *

System: wild oat (Avena fatua) (AVEFA)
experiment-summary: post-emergent herbicidal test, wild oat
Format: in vivo
experimental-conditions: Avena fatua, post-emergence; post-emergent, 1.0 kg/ha (*), 17-21 days after application; read-out: AVEFA percent control

compound | unit-abbrev | pest or weed control at 1000 g/ha
CC1CCCN1CC(P(=O)(O)O)P(=O)(O)O (centres unmarked) [Compound 43] | % | 100
CC1CCCN(CC(P(=O)(O)O)P(=O)(O)O)C1C (centres unmarked) [Compound 57] | % | 100
Cc1cn(CC(P(=O)(O)O)P(=O)(O)O)cn1 [Compound 58] | % | 100
CC[C@H](C)NCC(P(=O)(O)O)P(=O)(O)O [Compound 56] | % | 100
CC(NCC(P(=O)(O)O)P(=O)(O)O)c1ccccc1 (centres unmarked) [Compound 26] | % | 80
CCCCN(CCCC)CC(P(=O)(O)O)P(=O)(O)O [Compound 24] | % | 98
O=P(O)(O)C(CN1CCCC1)P(=O)(O)O [Compound 4] | % | 60
CC1CCN(CC(P(=O)(O)O)P(=O)(O)O)CC1 [Compound 30] | % | 90

* * *

Test system: farnesyl pyrophosphate synthase in daffodil chromoplasts
experiment-summary: inhibition of farnesyl pyrophosphate synthase in daffodil chromoplasts (14C-isopentenyl pyrophosphate incorporation)
Format: biochemical, Narcissus pseudonarcissus
experimental-conditions: Table I; unit inferred, IC50 values in nM; read-out: IC50
Protocol: The IC50 value may be determined as follows. […] The butanol soluble radioactivity is then measured in a scintillation counter. In addition, the problem of variable quenching differences among different experiments can be essentially eliminated by determining the incorporation of radioactivity relative to controls. […] For each concentration of inhibitor examined the % residual activity is determined from the formula [formula] […]
Attribute: IC50
endpoint-label: IC50 (nM)

compound | endpoint-label | unit-abbrev | data-value
O=P(O)(O)C(O)(C1CCCCN1)P(=O)(O)O (stereo not shown) [Compound 9] | IC50 | nM | 209
CC1CCCCN1CC(P(=O)(O)O)P(=O)(O)O (stereo not shown) [Compound 10] | IC50 | nM | 83
O=P(O)(O)C(CN1CCCCC1)P(=O)(O)O [Compound 1] | IC50 | nM | 32
O=P(O)(O)C(CNCCc1ccccc1)P(=O)(O)O [Compound 28] | IC50 | nM | 1410
O=P(O)(O)C(CNC1Cc2ccccc2C1)P(=O)(O)O [Compound 46] | IC50 | nM | 440
CC(C)CNCC(P(=O)(O)O)P(=O)(O)O [Compound 12] | IC50 | nM | 150
CCCN(C)CC(P(=O)(O)O)P(=O)(O)O [Compound 32] | IC50 | nM | 27
CCN(CC)CC(P(=O)(O)O)P(=O)(O)O [Compound 13] | IC50 | nM | 240
CC1CC(C)CN(CC(P(=O)(O)O)P(=O)(O)O)C1 (stereo not shown) [Compound 35] | IC50 | nM | 520
CCCCN(CCCC)CC(P(=O)(O)O)P(=O)(O)O [Compound 24] | IC50 | nM | 190
